Where do these numbers come from? They come from patent US11053219B2.

measurement notes: Pharmacokinetic study in cynomolgus monkeys
Type: in vivo
protocol conditions: cynomolgus monkey, plasma, Oral (2 mg/kg), NA: no detectable
measured quantity: bioavailability (%)
# number only, unit % dropped from output

Qu. Fill in the blank: the reported bioavailability of [2H]C([2H])([2H])CC(=O)c1cnc(NC(=O)C2CC2)cc1Nc1cccc(-c2ncn(C([2H])([2H])[2H])n2)c1OC is ____.
Ans. 16.6

Qu. Which bioavailability value is on record for [2H]C([2H])([2H])CC(=O)c1cnc(Nc2cccc(C#N)n2)cc1Nc1cccc(-c2ncn(C([2H])([2H])[2H])n2)c1OC ?
Ans. 59.4

Qu. Query: bioavailability; subject: [2H]C([2H])([2H])CC(=O)c1cnc(NC(=O)C2CC2)cc1Nc1nccc(-c2ncn(C([2H])([2H])[2H])n2)c1OC
Ans. 27.7

Qu. Suppose we examine the compound [2H]C([2H])([2H])CC(=O)c1cnc(Nc2ccc(C(C)(C)O)c(F)n2)cc1Nc1nccc(-c2ncn(C([2H])([2H])[2H])n2)c1OC ; what bioavailability value has been reported?
Ans. 4.67

###

measurement notes: Pharmacokinetic study in Beagle dogs
Type: in vivo
protocol conditions: dog, plasma, Oral (2 mg/kg)
Please go through the items and note down their bioavailability.
Report the figure in % without appending any unit label.

Qu. Given [2H]C([2H])([2H])CC(=O)c1cnc(Nc2ccc(C(C)(C)O)c(F)n2)cc1Nc1cccc(-c2ncn(C([2H])([2H])[2H])n2)c1OC [Example 202] , state its recorded bioavailability.
Ans. 55

Qu. Endpoint output: bioavailability of [2H]C([2H])([2H])CC(=O)c1cnc(NC(=O)C2CC2)cc1Nc1cccc(-c2ncn(C([2H])([2H])[2H])n2)c1OC [Example 195] . Value?
Ans. 26.2

Qu. Quick one: bioavailability for [2H]C([2H])([2H])CC(=O)c1cnc(NC(=O)C2CC2)cc1Nc1nccc(-c2ncn(C([2H])([2H])[2H])n2)c1OC [Example 200] ?
Ans. 82.9

Qu. Can you look up the measured bioavailability of [2H]C([2H])([2H])CC(=O)c1cnc(Nc2ccc(C(C)(C)O)c(F)n2)cc1Nc1nccc(-c2ncn(C([2H])([2H])[2H])n2)c1OC [Example 201] for me?
Ans. 38.5

Qu. Value lookup for bioavailability; key = [2H]C([2H])([2H])CC(=O)c1cnc(Nc2cccc(C#N)n2)cc1Nc1nccc(-c2ncn(C([2H])([2H])[2H])n2)c1OC [Example 199]
Ans. 10.7

Qu. Which bioavailability reading was recorded for the molecule [2H]C([2H])([2H])CC(=O)c1cnc(Nc2cccc(C#N)n2)cc1Nc1cccc(-c2ncn(C([2H])([2H])[2H])n2)c1OC [Example 198] ?
Ans. 54

###

Field: Kd. Provide a value for each of the compounds that follow.
experimental system: TYK2 (JH2 domain) (Homo sapiens (Human), UniProt P29597)
Sequence (P29597 589-875): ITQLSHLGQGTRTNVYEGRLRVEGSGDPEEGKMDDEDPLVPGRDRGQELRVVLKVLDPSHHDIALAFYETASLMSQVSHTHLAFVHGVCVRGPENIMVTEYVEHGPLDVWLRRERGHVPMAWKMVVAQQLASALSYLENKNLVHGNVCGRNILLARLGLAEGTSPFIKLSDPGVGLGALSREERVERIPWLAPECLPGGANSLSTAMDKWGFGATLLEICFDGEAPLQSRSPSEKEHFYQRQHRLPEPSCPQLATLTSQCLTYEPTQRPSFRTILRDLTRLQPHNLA
measurement notes: TYK2 JH2 domain binding assay (DiscoverX KINOMEscan)
protocol conditions: 11-point 3-fold dilution, duplicate

Qu. Query for TYK2 (JH2 domain) (Homo sapiens (Human), UniProt P29597): what Kd does the record show for [2H]C([2H])([2H])NC(=O)c1c(Nc2cccc(-c3ncn(C)n3)c2OC)cc(NC(=O)C2CC2)nc1F [Example 23] ?
Ans. ≤ 1 nM

Qu. Kd of [2H]C([2H])([2H])NC(=O)c1nnc(N2CCN(C3CC(F)(F)C3)C2=O)cc1Nc1cccc(-c2ncn(C)n2)c1OC [Example 10] on TYK2 (JH2 domain) (Homo sapiens (Human), UniProt P29597)?
Ans. ≤ 1 nM

Qu. Form: Entry = [2H]C([2H])([2H])NC(=O)c1nnc(N2CCN(CC(F)(F)F)C2=O)cc1Nc1cccc(-c2ncn(C)n2)c1OC [Example 67] | System = TYK2 (JH2 domain) (Homo sapiens (Human), UniProt P29597) | Kd = ____
Ans. ≤ 1 nM

Qu. Look up Kd with TYK2 (JH2 domain) (Homo sapiens (Human), UniProt P29597) for this compound: [2H]C([2H])([2H])NC(=O)c1nnc(-n2ccn(C)c2=O)cc1Nc1cccc(-c2ncn(C)n2)c1OC [Example 63]
Ans. ≤ 1 nM

Qu. What is its Kd for TYK2 (JH2 domain) (Homo sapiens (Human), UniProt P29597)? Entry: [2H]C([2H])([2H])NC(=O)c1nnc(N2C[C@H](O)CC2=O)cc1Nc1cccc(-c2ncn(C)n2)c1OC [Example 76]
Ans. 1 to 5 nM

Qu. TYK2 (JH2 domain) (Homo sapiens (Human), UniProt P29597) / Kd / [2H]C([2H])([2H])NC(=O)c1nnc(N2CCC(C#N)(C3CC3)C2=O)cc1Nc1cccc(-c2ncn(C)n2)c1OC (centres unmarked) [Example 61] : value?
Ans. 1 to 5 nM

Qu. Please tell me: Kd of [2H]C([2H])([2H])NC(=O)c1nnc(N2CCN(C(C)C(F)(F)F)C2=O)cc1Nc1cccc(-c2ncn(C)n2)c1OC (centres unmarked) [Example 83] , system TYK2 (JH2 domain) (Homo sapiens (Human), UniProt P29597)?
Ans. ≤ 1 nM

Qu. Item: COc1c(Nc2cc(Nc3cc(C)c(F)cn3)ncc2C(=O)C2CC2)cccc1-c1ncn(C)n1 [Example 145] Test system: TYK2 (JH2 domain) (Homo sapiens (Human), UniProt P29597) Read-out: Kd Value: ?
Ans. ≤ 1 nM
